Recorded percentage ligand not blocked at 1 µg/ml for the following binders
target: T1, Extracellular domain of human PD1 (huPD1-ECD) (human, UniProt Q15116 25-169, biotinylated in the ligand inhibition assay (sites not given)); assay: MSD ligand inhibition, competitor coated cynoPDL1-ECD
T1 construct: Expressed with a hexahistidine tag or as Fc fusion; also called biotinylated PD-1
T1 sequence (Q15116 25-169 limits assumed): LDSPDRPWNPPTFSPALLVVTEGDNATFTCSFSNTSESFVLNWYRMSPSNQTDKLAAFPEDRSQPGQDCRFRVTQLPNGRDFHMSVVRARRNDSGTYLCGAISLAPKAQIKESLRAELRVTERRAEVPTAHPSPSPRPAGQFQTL
Only the number, expressed in %, is required.

Binder: PD1B192 (antibody, human IgG2, kappa, V domains shown, IgG2sigma/kappa; VH 43, VL 57; also called PD1H3/PD1L133) VH: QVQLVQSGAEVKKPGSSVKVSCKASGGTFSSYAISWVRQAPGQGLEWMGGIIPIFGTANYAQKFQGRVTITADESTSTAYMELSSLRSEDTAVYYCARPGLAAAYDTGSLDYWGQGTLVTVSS VL: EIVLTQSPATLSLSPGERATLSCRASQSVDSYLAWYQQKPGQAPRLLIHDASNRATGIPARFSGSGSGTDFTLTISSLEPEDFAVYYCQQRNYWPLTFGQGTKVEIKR
Units Symbol: %
percentage ligand not blocked at 1 µg/ml: 5

Binder: PD1B114 (antibody, human IgG2, kappa, V domains shown, IgG2sigma/kappa; also called PD1H24/PH9L3) VH: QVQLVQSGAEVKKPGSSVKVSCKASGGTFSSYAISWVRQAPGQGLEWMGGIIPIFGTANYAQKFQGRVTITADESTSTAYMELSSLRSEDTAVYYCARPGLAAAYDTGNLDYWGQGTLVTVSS VL: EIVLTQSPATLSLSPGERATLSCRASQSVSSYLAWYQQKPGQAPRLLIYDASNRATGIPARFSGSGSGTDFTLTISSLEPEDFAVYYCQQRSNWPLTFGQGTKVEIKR
Units Symbol: %
percentage ligand not blocked at 1 µg/ml: 8

Then there is this binder:
Quick one: give measured percentage ligand not blocked at 1 µg/ml for PD1B184 (antibody, human IgG2, kappa, V domains shown, IgG2sigma/kappa; VH 43, VL 50; also called PD1H3/PD1L128) VH: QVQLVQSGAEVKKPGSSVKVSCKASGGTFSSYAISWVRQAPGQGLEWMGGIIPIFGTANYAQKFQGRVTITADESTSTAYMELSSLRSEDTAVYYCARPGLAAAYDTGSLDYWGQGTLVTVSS VL: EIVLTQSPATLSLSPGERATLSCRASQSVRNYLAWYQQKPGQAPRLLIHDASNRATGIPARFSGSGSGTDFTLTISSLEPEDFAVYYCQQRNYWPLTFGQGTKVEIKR
4
